target: human CD33 T125A (human, UniProt P20138 18-364); assay: flow cytometry on HEK293-T, alanine scan
Sequence (P20138 18-364 T125A limits assumed): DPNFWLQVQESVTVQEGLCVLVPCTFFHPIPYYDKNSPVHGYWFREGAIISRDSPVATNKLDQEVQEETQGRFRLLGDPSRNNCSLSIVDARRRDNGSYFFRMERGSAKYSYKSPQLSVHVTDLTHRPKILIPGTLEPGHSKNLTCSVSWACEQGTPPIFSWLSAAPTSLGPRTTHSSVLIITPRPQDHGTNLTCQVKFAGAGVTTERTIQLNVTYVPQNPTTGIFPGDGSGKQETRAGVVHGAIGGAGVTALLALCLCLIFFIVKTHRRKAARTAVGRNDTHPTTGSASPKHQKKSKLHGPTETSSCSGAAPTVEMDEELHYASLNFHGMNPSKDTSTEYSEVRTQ
Task for the reader: assign each of the following binders its reported Mean % WT Binding.

Items follow; give Mean % WT Binding for each.
1. Refmab #2 (antibody, V domains shown, The alanine scan used IgG or Fab) VH: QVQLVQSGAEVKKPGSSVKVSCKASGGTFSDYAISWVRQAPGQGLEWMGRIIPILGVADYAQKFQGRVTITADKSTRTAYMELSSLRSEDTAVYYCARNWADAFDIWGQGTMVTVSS VL: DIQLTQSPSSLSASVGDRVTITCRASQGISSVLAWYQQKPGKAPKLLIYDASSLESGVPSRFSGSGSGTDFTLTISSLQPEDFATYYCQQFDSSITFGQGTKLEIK
2. Refmab #3 (antibody, V domains shown, The alanine scan used IgG or Fab) VH: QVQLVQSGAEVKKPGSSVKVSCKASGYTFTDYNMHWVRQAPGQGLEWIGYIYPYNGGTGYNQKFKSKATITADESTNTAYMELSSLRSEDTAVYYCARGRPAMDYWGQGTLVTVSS VL: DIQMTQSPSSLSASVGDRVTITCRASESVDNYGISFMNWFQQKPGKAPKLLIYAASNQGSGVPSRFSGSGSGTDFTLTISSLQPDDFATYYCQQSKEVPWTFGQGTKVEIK
3. Refmab #1 (antibody, V domains shown, The alanine scan used IgG or Fab; also called hP67.6) VH: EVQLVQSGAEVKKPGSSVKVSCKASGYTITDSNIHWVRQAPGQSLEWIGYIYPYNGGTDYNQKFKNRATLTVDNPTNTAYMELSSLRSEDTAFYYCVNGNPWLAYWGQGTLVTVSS VL: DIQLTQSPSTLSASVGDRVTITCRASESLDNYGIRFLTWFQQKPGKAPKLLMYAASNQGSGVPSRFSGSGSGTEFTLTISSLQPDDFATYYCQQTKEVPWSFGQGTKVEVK
4. Refmab #4 (antibody, V domains shown, The alanine scan used IgG or Fab) VH: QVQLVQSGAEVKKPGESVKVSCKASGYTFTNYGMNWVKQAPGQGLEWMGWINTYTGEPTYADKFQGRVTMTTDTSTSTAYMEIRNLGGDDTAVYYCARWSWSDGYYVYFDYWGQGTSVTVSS VL: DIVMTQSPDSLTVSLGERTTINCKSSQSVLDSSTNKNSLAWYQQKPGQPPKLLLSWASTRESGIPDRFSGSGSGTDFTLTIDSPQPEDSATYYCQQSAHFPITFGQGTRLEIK

107 % WT binding
932 % WT binding
92.4 % WT binding
218 % WT binding
